# SYSTEM: human C5 protein (human, UniProt P01031 19-673; P01031 678-1676)
# ASSAY_PROCEDURE: cell-based or functional assay
Starred links: 1 amine or outer side, 2 acyl side, 3 side chain; linkers in the order of their positions; H or OH if unused. Positions of bridges follow the written chain, without caps; N, C: chain ends. Non-standard residues stand in square brackets, D forms with d. Primed or numbered codes have the meaning given here. No end group written: not given here. *: point of attachment. mXylyl(3) = bridging moiety between the two residues given in brackets; m‑xylyl = bridging moiety between the two residues given in brackets; Phe(3-CH2NH2) = O=C([C@H](Cc1cccc(CN[*:3])c1)N[*:1])[*:2]; Trp(7-aza) = N[C@@H](Cc1c[nH]c2ncccc12)C(=O)O; 2Nal = N[C@@H](Cc1ccc2ccccc2c1)C(=O)O; Palmitoyl = CCCCCCCCCCCCCCCC(=O)*; NMeD = CN[C@@H](CC(=O)O)C(=O)O; Chg = N[C@H](C(=O)O)C1CCCCC1; Tle = CC(C)(C)[C@H](N)C(=O)O; Ac5c = NC1(C(=O)O)CCCC1; Nva = CCC[C@H](N)C(=O)O; Thp = NC1(C(=O)O)CCOCC1; Mpa = O=C(O)CCS
// classify(record): look up Avg. IC50, hemolysis assay with C5 depleted sera in ranges class 0 = under 4 nM, class 1 = from 4 nM up to 60 nM, class 2 = 60 nM and over

| BINDER | CLASS |
| --- | --- |
| Ac-KVERFD[NMeD][Tle]Y[Trp(7-aza)]EYP[Chg]K-NH2 (lactam 1-6; SMILES CC(=O)N[C@H]1CCCCNC(=O)C[C@@H](C(=O)N(C)[C@@H](CC(=O)O)C(=O)N[C@H](C(=O)N[C@@H](Cc2ccc(O)cc2)C(=O)N[C@@H](Cc2c[nH]c3ncccc23)C(=O)N[C@@H](CCC(=O)O)C(=O)N[C@@H](Cc2ccc(O)cc2)C(=O)N2CCC[C@H]2C(=O)N[C@H](C(=O)N[C@@H](CCCCN)C(N)=O)C2CCCCC2)C(C)(C)C)NC(=O)[C@H](Cc2ccccc2)NC(=O)[C@H](CCCNC(=N)N)NC(=O)[C@H](CCC(=O)O)NC(=O)[C@H](C(C)C)NC1=O) [R3192] | class 0 |
| [Mpa]VERFC[NMeD][Tle]Y[Trp(7-aza)]EYP[Chg]K(Palmitoyl) (bridge 1-6; also: cyclo(1,6) between Cys1 and Cys6, ring kind not given here) [R3198] | class 2 |
| Ac-CVERFC[Ac5c][Tle]Y[Trp(7-aza)]EYP[Chg][Nva] (linker 1-6 via m‑xylyl) [R3185] | class 1 |
| Ac-CVERFCD[Tle]Y[Trp(7-aza)]E[(m-Cl-homo)Phe]P[Chg][Nva] (linker 1-6 via m‑xylyl) [R3179] | class 2 |
| Ac-CVERFCD[Tle]Y[Trp(7-aza)]EWP[Chg][Nva] (linker 1-6 via m‑xylyl) [R3177] | class 1 |
| Ac-KVERFD[NMeD][Tle]YWEYP[Chg]K(Palmitoyl) (lactam 1-6) [R3195] | class 2 |
| Ac-KVERFD[NMeD][Tle]YWEYP[Chg]K (lactam 1-6) [R3196] | class 0 |
| Ac-CVERFCD[Tle]Y[Phe(3-CH2NH2)]EYP[Chg][Nva] (linker 1-6 via m‑xylyl) [R3181] | class 2 |
| Ac-CVERFCD[Tle]Y[Trp(7-aza)]E[2Nal]P[Chg][Nva] (linker 1-6 via m‑xylyl) [R3180] | class 1 |
| Ac-CVERFC[Thp][Tle]Y[Trp(7-aza)]EYP[Chg][Nva] (linker 1-6 via mXylyl(3)) [R3186] | class 1 |
